Origin of measurements: paper PMC9482650

// values below are reported pKd
Biological target: DLG1_2, Q12959
Sequence (Q12959 314-412): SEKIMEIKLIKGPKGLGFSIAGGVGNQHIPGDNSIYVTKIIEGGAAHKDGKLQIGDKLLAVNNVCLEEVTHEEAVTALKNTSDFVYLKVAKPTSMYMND
Test: holdup assay
Design: key: below the threshold = too weak to quantify, mostly under pKd 3.1 to 4
Settings: plain residues with an end cap or a label only (N-terminal biotin on a linker: ado-ado)
# respond with the number and nothing more

Sample answers from the record:
{"binder": "NTANRRTTPV [CACNG2, Q9Y698]", "pKd": 5.01}
{"binder": "RDPPAEWTRV [PTPN18, Q99952]", "pKd": 4.48}
{"binder": "AQRARSPSDV [GPR12, P47775]", "pKd": 3.75}
{"binder": "DGVNEKVSCV [HTR2A, P28223]", "pKd": 4.82}
{"binder": "TRKRSGEAAV [PFKM, P08237]", "pKd": 3.95}

Now for a further binder.
Given the binder EIPAQSPTCV [FZD10, Q9ULW2] , what is its reported pKd?
3.86
